The measurements presented in this section are drawn from paper PMC12136788.

Quick list: binding signal per entry.
target.of.assay: MSI1 full-length (mouse, UniProt Q61474 1-362)
Sequence (Q61474 whole entry): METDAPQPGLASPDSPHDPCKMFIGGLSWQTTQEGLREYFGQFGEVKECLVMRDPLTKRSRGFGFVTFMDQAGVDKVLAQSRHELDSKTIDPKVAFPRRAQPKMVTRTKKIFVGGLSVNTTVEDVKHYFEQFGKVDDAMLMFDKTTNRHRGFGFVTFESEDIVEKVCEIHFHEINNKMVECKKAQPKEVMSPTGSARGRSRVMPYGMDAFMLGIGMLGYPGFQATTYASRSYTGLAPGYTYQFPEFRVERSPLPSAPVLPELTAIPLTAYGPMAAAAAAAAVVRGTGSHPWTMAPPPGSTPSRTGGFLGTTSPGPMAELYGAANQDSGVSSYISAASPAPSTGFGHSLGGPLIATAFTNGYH
test.description: nsRBNS (natural sequence RNA bind-n-seq); RBNS binding buffer (assumed for nsRBNS): 25 mM Tris pH 7.5, 150 mM KCl, 3 mM MgCl2, 0.01% Triton X-100, 500 ug/ml BSA, 20 U/ml SUPERase-In, 4 C; UNK is unkempt and MSI1 is Musashi-1; names of the RNAs are library labels; protein concentration not given here; high values mean tight binding
The full ranking holds about 5,800 sequences; the median of “enrichment r” is about 0.54, and the highest 2% start at about 16. The entries come from a sample that favours the highest values as a whole.
Report the value in enrichment R with no unit label.

Consider the worked cases shown below.
binder="chr9:96818597:96818698:-|CDS|ENSG00000196597|unk|FALSE|unique (ssRNA) RNA: GGGAGUUCUACAGUCCGACGAUCGGAGAAACCAUUCGAAUGUCAUGAAUGUGGGAAAUCUUUUAACUAUAAGUCAAUCCUCAUAGUGCAUCAGAGAACUCACACAGGGGAGAAACCUUUUGAAUGUAAUGAAUGCGGGAAAUCCAACAGAGGAUUGAGCAUCA" assay_result=0.426
binder="chr11:59152587:59152688:+|CDS|ENSG00000166801|msi1|FALSE|unique (ssRNA) RNA: GGGAGUUCUACAGUCCGACGAUCAUUGAAAACUUCAAGAAAAAAAUGAAAGUAAAAAAUGGGGAAACAUUAUUUGAAUUGCAUAGAACAACGUUUGGGAAAGUAACAAAAAAUUCUUCUUCGAUUAAAGUAGUGAAACUUCUUCAACAGAGGAUUGAGCAUCA" assay_result=0.574

Query block: // binding signal lookup, key: ENSG00000096070:stop:overlap|stop_codon|ENSG00000096070|stop_codon|NA|stop_codon (ssRNA) RNA: GGGAGUUCUACAGUCCGACGAUCAGAAGGAUCCUGCACACAUCUUCGCAGAACCAGUCAACUUGAGUGAGGUUUUAUAUGUUUAGGUUCCAGAUUACCUGGAAUUCAUAUCCAAGCCAAUGGAUUUUUCUACUAUGAGGCGGACAACAGAGGAUUGAGCAUCA
Result block: 0.383
